- Test system: RARb homodimer (NR concentration 270 nM)
- procedure_text: PBM binding z-score (relative to random genomic background probes); higher = stronger binding; sequences stand for … in GC…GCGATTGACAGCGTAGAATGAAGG
Classification field: True = PBM binding z-score at or over 2; False = PBM binding z-score under 2.

chain_sequence	label_class
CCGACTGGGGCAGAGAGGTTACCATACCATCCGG	False
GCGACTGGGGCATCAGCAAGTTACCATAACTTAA	False

Challenge: Has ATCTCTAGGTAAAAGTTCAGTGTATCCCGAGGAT a recorded PBM binding z-score greater than or equal to 2?
Response given: True

Challenge: Test whether the sequence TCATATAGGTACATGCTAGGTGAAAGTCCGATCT records PBM binding z-score of 2 or higher.
Response given: False

###

- System: RARa:RXR (NR concentration 270 nM, RXRa partner concentration 90 nM)
- procedure_text: PBM binding z-score (relative to random genomic background probes); higher = stronger binding; sequences stand for … in GC…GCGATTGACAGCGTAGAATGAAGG
Reported values of PBM binding z-score for individual entries
The reply should be a number, written without any unit.

chain_sequence	PBM binding z-score
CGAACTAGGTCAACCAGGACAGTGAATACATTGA	2.3
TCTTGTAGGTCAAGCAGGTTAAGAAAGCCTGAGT	3.68
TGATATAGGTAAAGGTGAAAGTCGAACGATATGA	1.93

Noted for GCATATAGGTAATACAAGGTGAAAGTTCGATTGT : its PBM binding z-score reads 2.6

get_value(item= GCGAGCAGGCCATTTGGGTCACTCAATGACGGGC , readout=PBM binding z-score) returns 0.937

###

- Test system: PPARg DBDmut:RXRa IVT, anti-PPARg (DBD mutation: PPARg1 K132A/R137A, NR concentration 270 nM, RXRa partner concentration 90 nM)
- procedure_text: PBM binding z-score (relative to random genomic background probes); higher = stronger binding; sequences stand for … in GC…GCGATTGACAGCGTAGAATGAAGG
Where PBM binding z-score equals or exceeds 0.4, the correct label is met; where it does not, the label is not met.

chain_sequence	label_class
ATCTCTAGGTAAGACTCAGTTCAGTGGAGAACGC	met
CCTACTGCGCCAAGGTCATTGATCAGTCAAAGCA	not met
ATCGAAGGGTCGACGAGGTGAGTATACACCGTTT	not met
TCTTGCAGATCAAAGGTTAAGAAAGCCGAAGCCT	not met
GCATATAGGTAATATAAGGTGAAAGTCCGATTGT	met

Now let's try a different one.
Challenge: Assess whether reported PBM binding z-score for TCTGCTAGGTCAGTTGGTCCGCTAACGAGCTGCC sits at 0.4 or higher.
Response given: met

###

- Test system: FXR:RXRa (NR concentration 270 nM, RXRa partner concentration 90 nM)
- procedure_text: PBM binding z-score (relative to random genomic background probes); higher = stronger binding; sequences stand for … in GC…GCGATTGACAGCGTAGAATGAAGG
Category scheme (PBM binding z-score): lower segment = under 0.05, middle segment = from 0.05 up to 2, upper segment = 2 and over

Solved entries:
chain_sequence	label_class
CAAACTAGGTCACCGGAAGTTCAAAGTCCGCATG	upper segment
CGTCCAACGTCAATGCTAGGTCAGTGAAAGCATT	lower segment
CGAACTAGGTCTGAACAGGACAGTGAAGGATGAT	lower segment
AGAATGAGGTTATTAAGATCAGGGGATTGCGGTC	middle segment
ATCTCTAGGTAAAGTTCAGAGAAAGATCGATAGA	middle segment
TTACCAAGGTGAAGGTCGTTGATCCCTCTGTAGA	upper segment
TCTATTAGTTGACTAGGGCAACCGAAACAGCGGA	middle segment
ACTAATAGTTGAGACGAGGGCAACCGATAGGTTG	middle segment

Challenge: The entry to classify is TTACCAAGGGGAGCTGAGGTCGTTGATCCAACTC ; which class holds it?
Response given: middle segment

Challenge: Could you place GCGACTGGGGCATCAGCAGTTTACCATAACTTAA in its proper category? Many thanks.
Response given: lower segment

###

- System: RXRa homodimer (NR concentration 180 nM)
- procedure_text: PBM binding z-score (relative to random genomic background probes); higher = stronger binding; sequences stand for … in GC…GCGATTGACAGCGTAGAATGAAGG
measured_parameter: PBM binding z-score
// no unit string in output, number only

chain_sequence	measured_parameter	quantitative_readout
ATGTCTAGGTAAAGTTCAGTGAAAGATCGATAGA	PBM binding z-score	1.5
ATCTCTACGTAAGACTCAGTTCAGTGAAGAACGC	PBM binding z-score	0.286
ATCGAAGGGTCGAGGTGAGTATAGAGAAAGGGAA	PBM binding z-score	2.29

The sequence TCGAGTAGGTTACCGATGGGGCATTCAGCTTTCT showed PBM binding z-score equal to 0.626

Short answer for CCAGACAGGTGAAAGGTAACTAAGTCTGGTACGC : PBM binding z-score was 1.99

Consider CCTACTGGGCTAAAAAGGTCATTGATGCCGATAA . Its measured PBM binding z-score is 4.39

For CAGCCTAGGTCAGGGCCAATATAGGAGGAACGTT the sequence record lists PBM binding z-score as 1.69

PBM binding z-score reported for this sequence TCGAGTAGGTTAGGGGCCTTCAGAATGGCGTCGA : -0.143

Briefly, PBM binding z-score measured for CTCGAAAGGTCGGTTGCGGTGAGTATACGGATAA : 2.06

Recorded result, ATCGACAGGTCGAGGTGAGTATAGAGAAAGGGAA , PBM binding z-score: 1.22

CCCGAAAGGTCGGTTGAGGTGAGTATACGGATAA has a reported PBM binding z-score of 2.41

Notebook: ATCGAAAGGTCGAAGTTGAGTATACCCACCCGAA , PBM binding z-score read as 4.79

###

- Test system: LXRb homodimer (NR concentration 270 nM)
- procedure_text: PBM binding z-score (relative to random genomic background probes); higher = stronger binding; sequences stand for … in GC…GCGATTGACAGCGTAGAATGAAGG
class 1 means recorded PBM binding z-score is 0.6 or above; class 0 means it is below 0.6.

chain_sequence	target_or_test_system	label_class
GCTGCTAGGCCAGGTTGGTCAGCTAACGGGTACG	LXRb homodimer (NR concentration 270 nM)	class 0
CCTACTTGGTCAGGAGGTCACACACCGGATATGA	LXRb homodimer (NR concentration 270 nM)	class 0
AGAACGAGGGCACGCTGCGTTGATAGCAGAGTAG	LXRb homodimer (NR concentration 270 nM)	class 0
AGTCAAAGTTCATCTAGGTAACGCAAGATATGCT	LXRb homodimer (NR concentration 270 nM)	class 1

Challenge: Say whether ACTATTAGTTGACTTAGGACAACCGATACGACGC shows PBM binding z-score of 0.6 or more.
Response given: class 1

###

- System: LXRb:RXRa (NR concentration 270 nM, RXRa partner concentration 90 nM)
- procedure_text: PBM binding z-score (relative to random genomic background probes); higher = stronger binding; sequences stand for … in GC…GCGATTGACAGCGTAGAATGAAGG
measured_parameter: PBM binding z-score

chain_sequence	PBM binding z-score
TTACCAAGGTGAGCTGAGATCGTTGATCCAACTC	-0.704
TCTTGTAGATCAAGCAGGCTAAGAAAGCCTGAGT	-0.376
GATACAGGGTCAAGGCCAGACTACGCGTATTGAT	3.72
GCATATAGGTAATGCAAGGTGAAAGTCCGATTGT	0.568
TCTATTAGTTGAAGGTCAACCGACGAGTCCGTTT	3.9

// sample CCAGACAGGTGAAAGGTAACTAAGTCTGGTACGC , its PBM binding z-score was 0.84

Memo: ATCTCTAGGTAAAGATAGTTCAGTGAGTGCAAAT , reported PBM binding z-score: 0.833

For reference, reported PBM binding z-score for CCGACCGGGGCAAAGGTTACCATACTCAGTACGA stands at 2.47

# sequence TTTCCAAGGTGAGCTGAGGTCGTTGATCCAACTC ; its PBM binding z-score = 0.979

###

# PBM binding z-score per record follows
- Tested on: LXRa:RXRa (NR concentration 270 nM, RXRa partner concentration 90 nM)
- procedure_text: PBM binding z-score (relative to random genomic background probes); higher = stronger binding; sequences stand for … in GC…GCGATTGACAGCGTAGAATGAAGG

The following sequences have reported results that may help.
chain_sequence	PBM binding z-score
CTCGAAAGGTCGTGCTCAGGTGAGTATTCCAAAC	3.85
ATCTCTATGTAACAAGTTCAGTGAAAGAGAGGAC	0.0801

The sequence listed as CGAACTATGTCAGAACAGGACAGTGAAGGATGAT has a reported PBM binding z-score of -0.347

What the record says about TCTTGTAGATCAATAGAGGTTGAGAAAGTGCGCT : PBM binding z-score is 0.354

So for ATCTCTAGGTAACAAGTTTAGTGAAAGAGAGGAC , the logged PBM binding z-score turned out to be 0.215
